Entry source: PubChem BioAssay (NCI)

Test system: RXF 393 renal
Test: NCI-60 one-dose screen, 48 h (100 = growth as untreated, 0 = no growth, -100 = all killed)
Details: 10 µM unless noted
About 83,000 compounds went through this panel and 20% of them were active in at least one assay; those are over-represented in the sample as a whole.
Catalogue of growth values
Please respond with the number in % and leave the unit unwritten.

Field: example entries. Status: answers known.
[
  {
    "compound": "C#C[C@]1(O)CC[C@H]2[C@@H]3CC=C4c5sc(C6CCOCC6)nc5CC[C@]4(C)[C@H]3CC[C@@]21C",
    "metric": "growth",
    "value_measured": 4.95
  },
  {
    "compound": "Oc1ccc(CSc2nnc(-c3ccc(Cl)cc3)o2)c2cccnc12",
    "metric": "growth",
    "value_measured": 52.2
  },
  {
    "compound": "O=C(C[n+]1ccnc2ccccc21)c1ccc(O)c(O)c1",
    "metric": "growth",
    "value_measured": 17
  },
  {
    "compound": "O=c1oc2ccc(-c3ccc(F)cc3F)cc2c(=O)n1-c1cccc(C(F)(F)F)c1",
    "metric": "growth",
    "value_measured": -24.7
  }
]

Lab note: next compound to report on.
Entry "CN1CCN(Cc2ccc(NC(=O)c3cncc(C#Cc4cnc5ccc(NC6CCOCC6)nn45)c3)cc2C(F)(F)F)CC1" ; assay system RXF 393 renal; growth recorded at -93.8
